- experimental.target: T1, cynoNectin4-mFc (cyno, UniProt A0A2K5WES1 32-349)
- T1 construct: Immobilized on the SPR chip; also called cyanoNectin4; not shown: mFc (mouse Fc)
- T1 sequence: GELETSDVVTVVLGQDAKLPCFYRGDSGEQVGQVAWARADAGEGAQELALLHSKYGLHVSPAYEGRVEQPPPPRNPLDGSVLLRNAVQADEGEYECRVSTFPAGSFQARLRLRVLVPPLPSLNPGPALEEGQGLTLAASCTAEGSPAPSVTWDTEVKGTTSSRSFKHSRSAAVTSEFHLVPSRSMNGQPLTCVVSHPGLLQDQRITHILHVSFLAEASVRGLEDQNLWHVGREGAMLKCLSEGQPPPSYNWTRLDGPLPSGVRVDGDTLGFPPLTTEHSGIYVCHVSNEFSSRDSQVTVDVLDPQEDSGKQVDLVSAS
- assay.notes: SPR, cynoNectin4-mFc immobilized, pH 7.4
Known koff of a selection of binders
Report the value in s⁻¹ with no unit label.

BAP-143-00-04 (antibody, V domains shown, Used as a conjugate with a linker payload (CAB ADC)) VH: EVQLVESGGGLVQPGGSLRLSCAASGFTFSSYNDNWVRQAPGKGLEWVSYISSSSSTIYYADSVKGRFTISRDNAKNSLSLQMNSLRDEDTAVYYCARAYYYGMDVWGQGTTVTVSS VL: DIQMTQSPSSVSASVGDRVTITCRASQGISGWLAWYQQKPGKAPKFLIYAASTLQSGVPSRFSGSGSGTDFTLTISSLQPEDFATYYCQQANSFPPTFGGGTKVEIK :: 0.00112

// moving on: another record for koff
For the binder BAP-143-00-05 (antibody, V domains shown, Used as a conjugate with a linker payload (CAB ADC)) VH: EVQLVESGGGLVQPGGSLRLSCAASGFTFSSYNMNWVRQAPGKGLEWVSYISSSSSTIYYADSVKGRFTISRDNAKNSLSLQMNSLRDEDTAVYYCAEAYYYGMDVWGQGTTVTVSS VL: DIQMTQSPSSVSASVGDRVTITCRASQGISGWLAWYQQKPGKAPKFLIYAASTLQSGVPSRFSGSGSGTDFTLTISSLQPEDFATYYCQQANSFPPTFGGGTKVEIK , what koff is on record?
0.00157
